target: Neuropilin-1 (Rattus norvegicus, UniProt Q9QWJ9); assay: Inhibition of biotin labelled VEGF165 binding to rat recombinant NRP-1/Fc chimeric protein incubated for overnight by competitive ELISA method; conditions: read-out: IC50
Positions of bridges follow the written chain, without caps; N, C: chain ends. Non-standard residues stand in square brackets, D forms with d. Residues, ends and D or L forms follow the SMILES beside them. Orn = NCCC[C@H](N)C(=O)O
READOUT KIND: IC50

> print(dat)
                                   molecule  experimental.result
1  N=C(N)NCCC[C@H](NC(=O)[C@@H]1CCC(=O)NCCCC[C@@H](N)C(=O)N2CCC[C@H]2C(=O)N1)C(=O)O (H-[dK]PER-OH; lactam 1-3)              > 10 µM
2  N=C(N)NCCC[C@H](NC(=O)[C@@H]1CCC(=O)NCCC[C@H](N)C(=O)N2CCC[C@H]2C(=O)N1)C(=O)O (H-[Orn]PER-OH; lactam 1-3)              > 10 µM
3  N=C(N)NCCC[C@H](NC(=O)[C@@H]1CC(=O)NCCCC[C@H](N)C(=O)N2CCC[C@H]2C(=O)N1)C(=O)O (H-KPDR-OH; lactam 1-3)              > 10 µM

Attribution: ChEMBL document CHEMBL3875187
